All values here come from patent US7148249B2.

Structures can show the parent of a compound that is named as a salt.
Value kind: melting point

[[record]]
molecule = "Cc1nc2ccc(/C(Nc3ccc(CN4CCCC4)cc3)=C3/C(=O)Nc4cc(Cl)ccc43)cc2[nH]1"
assay_result = "295 to 297 °C (dec.)"

[[record]]
molecule = "CCCS(=O)(=O)N(CCN(C)C)c1ccc(N/C(=C2\\C(=O)Nc3cc(Cl)ccc32)c2ccncc2)cc1"
assay_result = "228 to 232 °C"

[[record]]
molecule = "CN(C)CC(=O)N(C)c1ccc(N/C(=C2\\C(=O)Nc3cc(Cl)ccc32)c2ccncc2)cc1"
assay_result = "274 to 276 °C"

[[record]]
molecule = "CCNCc1ccc(N/C(=C2\\C(=O)Nc3cc(F)ccc32)c2ccc3c(c2)OCCO3)cc1"
assay_result = "153 to 154 °C"

[[record]]
molecule = "CN1CCC(N/C(=C2\\C(=O)Nc3ccccc32)c2ccoc2)CC1"
assay_result = "255 to 260 °C"

[[record]]
molecule = "CN(C)CC(=O)N(C)c1ccc(N/C(=C2\\C(=O)Nc3ccccc32)c2ccc3c(c2)OCO3)cc1"
assay_result = "221 to 222 °C"

[[record]]
molecule = "O=C1Nc2cc(Cl)ccc2/C1=C(/Nc1ccc(CN2CCCC2)cc1)c1ccc2nc[nH]c2c1"
assay_result = "277 to 279 °C"

[[record]]
molecule = "CCNCc1ccc(N/C(=C2\\C(=O)Nc3cc(F)ccc32)c2ccc3c(c2)ncn3C)cc1 (as salt: salt)"
assay_result = "226 to 228 °C"


====

# Test system: Human umbilical endothelial cells (HUVEC)
# Protocol notes: Inhibition of VEGF165-stimulated HUVEC proliferation (3H-thymidine incorporation)
# Type: cell-based
# Reported conditions: Homo sapiens; HUVEC proliferation stimulated with 5 ng/ml VEGF165 and 10 μg/ml heparin; 76 h incubation + 16 h 3H-thymidine
Value kind: IC50 (nM)

[[record]]
molecule = "CN(C)Cc1ccc(N/C(=C2\\C(=O)Nc3cc(Cl)ccc32)c2ccc3c(c2)OCO3)cc1"
system_tested = "Human umbilical endothelial cells (HUVEC)"
value_kind = "IC50"
assay_result = 11

[[record]]
molecule = "CCC(=O)N(CCN(C)C)c1ccc(N/C(=C2\\C(=O)Nc3cc(Cl)ccc32)c2ccc3c(c2)OCCO3)cc1"
system_tested = "Human umbilical endothelial cells (HUVEC)"
value_kind = "IC50"
assay_result = 1

[[record]]
molecule = "CN(C)Cc1ccc(N/C(=C2\\C(=O)Nc3ccccc32)c2ccc3nc[nH]c3c2)cc1"
system_tested = "Human umbilical endothelial cells (HUVEC)"
value_kind = "IC50"
assay_result = 31

[[record]]
molecule = "CN1CCN(CC(=O)N(C)c2ccc(N/C(=C3\\C(=O)Nc4cc(Cl)ccc43)c3ccc4nccnc4c3)cc2)CC1"
system_tested = "Human umbilical endothelial cells (HUVEC)"
value_kind = "IC50"
assay_result = 4

[[record]]
molecule = "CCNCc1ccc(N/C(=C2\\C(=O)Nc3cc(F)ccc32)c2ccc3c(c2)OCCO3)cc1"
system_tested = "Human umbilical endothelial cells (HUVEC)"
value_kind = "IC50"
assay_result = 10

[[record]]
molecule = "CN(C)CC(=O)N(C)c1ccc(N/C(=C2\\C(=O)Nc3ccccc32)c2ccc3c(c2)OCO3)cc1"
system_tested = "Human umbilical endothelial cells (HUVEC)"
value_kind = "IC50"
assay_result = 13

[[record]]
molecule = "COC(=O)c1ccc2c(c1)NC(=O)/C2=C(\\Nc1ccc(CN(C)C)cc1)c1ccc2c(c1)OCCO2"
system_tested = "Human umbilical endothelial cells (HUVEC)"
value_kind = "IC50"
assay_result = 0.5

[[record]]
molecule = "CN(C)CCC(=O)N(C)c1ccc(N/C(=C2\\C(=O)Nc3cc(F)ccc32)c2ccc3c(c2)OCCO3)cc1"
system_tested = "Human umbilical endothelial cells (HUVEC)"
value_kind = "IC50"
assay_result = 3

[[record]]
molecule = "CN(C)CCN(C(=O)c1cccnc1)c1ccc(N/C(=C2\\C(=O)Nc3cc(Cl)ccc32)c2ccc3c(c2)OCO3)cc1"
system_tested = "Human umbilical endothelial cells (HUVEC)"
value_kind = "IC50"
assay_result = 6

[[record]]
molecule = "CN(C)CC(=O)N(C)c1ccc(N/C(=C2\\C(=O)Nc3cc(Cl)ccc32)c2ccc3c(c2)ncn3C)cc1"
system_tested = "Human umbilical endothelial cells (HUVEC)"
value_kind = "IC50"
assay_result = 30

[[record]]
molecule = "CCNCc1ccc(N/C(=C2\\C(=O)Nc3cc(C(=O)OC)ccc32)c2ccc3c(c2)OCCO3)cc1"
system_tested = "Human umbilical endothelial cells (HUVEC)"
value_kind = "IC50"
assay_result = 0.8

[[record]]
molecule = "COC(=O)c1ccc2c(c1)NC(=O)/C2=C(\\Nc1ccc(C(=O)N(C)CCN(C)C)cc1)c1ccc2c(c1)OCO2"
system_tested = "Human umbilical endothelial cells (HUVEC)"
value_kind = "IC50"
assay_result = 0.5

[[record]]
molecule = "CCC(=O)N(CCCN(C)C)c1ccc(N/C(=C2\\C(=O)Nc3cc(Cl)ccc32)c2ccc3c(c2)OCCO3)cc1"
system_tested = "Human umbilical endothelial cells (HUVEC)"
value_kind = "IC50"
assay_result = 1

[[record]]
molecule = "CN(C)CCN(c1ccc(N/C(=C2\\C(=O)Nc3cc(F)ccc32)c2ccc3c(c2)OCCO3)cc1)S(C)(=O)=O"
system_tested = "Human umbilical endothelial cells (HUVEC)"
value_kind = "IC50"
assay_result = 1

[[record]]
molecule = "CN1CCN(Cc2ccc(N/C(=C3\\C(=O)Nc4cc(C(=O)N(C)C)ccc43)c3ccc4c(c3)OCCO4)cc2)CC1"
system_tested = "Human umbilical endothelial cells (HUVEC)"
value_kind = "IC50"
assay_result = 100

[[record]]
molecule = "COC(=O)c1ccc2c(c1)NC(=O)/C2=C(\\Nc1ccc(N(C)C(=O)CN(C)C)cc1)c1ccc2c(c1)OCCO2"
system_tested = "Human umbilical endothelial cells (HUVEC)"
value_kind = "IC50"
assay_result = 0.6

[[record]]
molecule = "CCN(CC)CCS(=O)(=O)c1ccc(N/C(=C2\\C(=O)Nc3cc(Cl)ccc32)c2ccc3c(c2)OCO3)cc1"
system_tested = "Human umbilical endothelial cells (HUVEC)"
value_kind = "IC50"
assay_result = 120

[[record]]
molecule = "CCC(=O)N(CCCN(C)C)c1ccc(N/C(=C2\\C(=O)Nc3cc(F)ccc32)c2ccc3c(c2)OCCO3)cc1 [(z)]"
system_tested = "Human umbilical endothelial cells (HUVEC)"
value_kind = "IC50"
assay_result = 0.5

[[record]]
molecule = "Cc1nc2ccc(/C(Nc3ccc(CN4CCCC4)cc3)=C3/C(=O)Nc4cc(Cl)ccc43)cc2[nH]1"
system_tested = "Human umbilical endothelial cells (HUVEC)"
value_kind = "IC50"
assay_result = 19

[[record]]
molecule = "CN(C)CCN(C)S(=O)(=O)c1ccc(N/C(=C2\\C(=O)Nc3cc(F)ccc32)c2ccc3c(c2)ncn3C)cc1"
system_tested = "Human umbilical endothelial cells (HUVEC)"
value_kind = "IC50"
assay_result = 13

[[record]]
molecule = "COC(=O)c1ccc2c(c1)NC(=O)/C2=C(\\Nc1ccc(C(=O)N(C)CCN(C)C)cc1)c1ccc2c(c1)OCCO2"
system_tested = "Human umbilical endothelial cells (HUVEC)"
value_kind = "IC50"
assay_result = 0.4

[[record]]
molecule = "O=C1Nc2cc(Cl)ccc2/C1=C(/Nc1ccc(CN2CCCC2)cc1)c1ccc2nc[nH]c2c1"
system_tested = "Human umbilical endothelial cells (HUVEC)"
value_kind = "IC50"
assay_result = 3

[[record]]
molecule = "CC(=O)N(CCN(C)C)c1ccc(N/C(=C2\\C(=O)Nc3cc(Cl)ccc32)c2ccc3c(c2)OCCO3)cc1"
system_tested = "Human umbilical endothelial cells (HUVEC)"
value_kind = "IC50"
assay_result = 2

[[record]]
molecule = "CCN(C)Cc1ccc(N/C(=C2\\C(=O)Nc3cc(Cl)ccc32)c2ccc3c(c2)OCO3)cc1"
system_tested = "Human umbilical endothelial cells (HUVEC)"
value_kind = "IC50"
assay_result = 2

[[record]]
molecule = "CCCS(=O)(=O)N(CCN(C)C)c1ccc(N/C(=C2\\C(=O)Nc3cc(Cl)ccc32)c2ccncc2)cc1"
system_tested = "Human umbilical endothelial cells (HUVEC)"
value_kind = "IC50"
assay_result = 37

[[record]]
molecule = "CC(=O)N(CCCN(C)C)c1ccc(N/C(=C2\\C(=O)Nc3cc(Cl)ccc32)c2ccc3c(c2)OCCO3)cc1"
system_tested = "Human umbilical endothelial cells (HUVEC)"
value_kind = "IC50"
assay_result = 0.3

[[record]]
molecule = "CN(C)CC(=O)N(C)c1ccc(N/C(=C2\\C(=O)Nc3ccccc32)c2ccoc2)cc1"
system_tested = "Human umbilical endothelial cells (HUVEC)"
value_kind = "IC50"
assay_result = 58

[[record]]
molecule = "CCC(=O)N(CCN(C)C)c1ccc(N/C(=C2\\C(=O)Nc3cc(F)ccc32)c2ccc3c(c2)OCCO3)cc1"
system_tested = "Human umbilical endothelial cells (HUVEC)"
value_kind = "IC50"
assay_result = 0.6

[[record]]
molecule = "CCN(CC)Cc1ccc(N/C(=C2\\C(=O)Nc3cc(C(=O)OC)ccc32)c2ccc3c(c2)OCO3)cc1"
system_tested = "Human umbilical endothelial cells (HUVEC)"
value_kind = "IC50"
assay_result = 1

[[record]]
molecule = "COC(=O)c1ccc2c(c1)NC(=O)/C2=C(\\Nc1ccc(N(CCN(C)C)C(C)=O)cc1)c1ccc2c(c1)OCCO2"
system_tested = "Human umbilical endothelial cells (HUVEC)"
value_kind = "IC50"
assay_result = 0.2

[[record]]
molecule = "CN1CCN(C(=O)Cc2ccc(N/C(=C3\\C(=O)Nc4cc(F)ccc43)c3ccc4c(c3)OCCO4)cc2)CC1"
system_tested = "Human umbilical endothelial cells (HUVEC)"
value_kind = "IC50"
assay_result = 4

